Target: Cytochrome P450 2C19 (Homo sapiens) (UniProt P33261)
Sequence (P33261 whole entry, looked up): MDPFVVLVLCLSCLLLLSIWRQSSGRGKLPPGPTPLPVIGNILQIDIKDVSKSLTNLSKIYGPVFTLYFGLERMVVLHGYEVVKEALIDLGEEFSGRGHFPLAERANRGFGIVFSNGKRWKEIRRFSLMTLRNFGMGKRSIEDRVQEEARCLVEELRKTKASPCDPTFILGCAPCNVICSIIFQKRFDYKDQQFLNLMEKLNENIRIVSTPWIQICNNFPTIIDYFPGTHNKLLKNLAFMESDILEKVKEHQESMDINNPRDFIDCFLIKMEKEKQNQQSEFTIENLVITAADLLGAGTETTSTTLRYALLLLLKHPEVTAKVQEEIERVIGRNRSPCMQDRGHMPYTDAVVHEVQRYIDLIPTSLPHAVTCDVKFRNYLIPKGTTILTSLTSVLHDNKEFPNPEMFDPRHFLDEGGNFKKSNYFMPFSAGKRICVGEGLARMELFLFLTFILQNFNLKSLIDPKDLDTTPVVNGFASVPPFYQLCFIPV
Test: Cytochrome P450 Family 2 Subfamily C Member 19 (CYP2C19) small molecule antagonists: luciferase reporter qHTS assay (AID 1671197); further: nearly all actives have a fitted effect of over 65% in size; further: potency means the concentration at half of the fitted maximal effect
Settings: P450-Glo CYP2C19 enzyme, luciferin luminescence, 1 h; series mostly up to 115 µM
Records with an inconclusive call do not appear. Calls of active or inactive are those of the source. The call rests on the fitted dose curve; in most records, active means well fitted inhibition curve with a large enough effect in the repeat runs; inconclusive means weak or mixed curves; inactive means no such curve, though single readings can be large or run the other way.
measuredMetric: Potency

Below, each entry is followed by its recorded Potency result.
| structureAsSmiles | measuredMetric | experimentalValue |
| --- | --- | --- |
| C=CC/C=C/C/C=C/C/C=C/C | Potency | inactive |
| C(=C/c1ccccc1)/c1ccccc1 | Potency | inactive |
| CSc1c(Cl)c(Cl)c(Cl)c(Cl)c1Cl | Potency | inactive |
| CN(Cc1cc(Br)cc(Br)c1N)C1CCCCC1 | Potency | 4.36 µM (active) |
| CCCCCCCCCCCCCc1ccccc1 | Potency | inactive |
| Cc1ccc(CCn2c3c(c4cc(Cl)ccc42)CN(C)CC3)cn1 | Potency | 17.4 µM (active) |
| CO[Si](CCCNCCNCCN)(OC)OC | Potency | inactive |
| NC(=O)c1nc(-c2cccc(-c3cc(F)ccc3OCC(F)(F)C(F)(F)F)c2)n[nH]1 | Potency | 28.3 µM (active) |
| CC(=O)c1ccccc1N | Potency | inactive |
| C=C(c1ccc(C(=O)O)cc1)c1cc2c(cc1C)C(C)(C)CCC2(C)C | Potency | inactive |

# query: Potency of entry CCc1cccc(CC)c1NC(=O)C(=O)O inactive
